Below is a list of entries, each paired with its recorded Ki value.
target: human AR (androgen receptor) (Homo sapiens, UniProt P10275)
Construct: expressed in transfected cells; host or cells: 293 cells (293-AR lysate)
Sequence (P10275 1-920): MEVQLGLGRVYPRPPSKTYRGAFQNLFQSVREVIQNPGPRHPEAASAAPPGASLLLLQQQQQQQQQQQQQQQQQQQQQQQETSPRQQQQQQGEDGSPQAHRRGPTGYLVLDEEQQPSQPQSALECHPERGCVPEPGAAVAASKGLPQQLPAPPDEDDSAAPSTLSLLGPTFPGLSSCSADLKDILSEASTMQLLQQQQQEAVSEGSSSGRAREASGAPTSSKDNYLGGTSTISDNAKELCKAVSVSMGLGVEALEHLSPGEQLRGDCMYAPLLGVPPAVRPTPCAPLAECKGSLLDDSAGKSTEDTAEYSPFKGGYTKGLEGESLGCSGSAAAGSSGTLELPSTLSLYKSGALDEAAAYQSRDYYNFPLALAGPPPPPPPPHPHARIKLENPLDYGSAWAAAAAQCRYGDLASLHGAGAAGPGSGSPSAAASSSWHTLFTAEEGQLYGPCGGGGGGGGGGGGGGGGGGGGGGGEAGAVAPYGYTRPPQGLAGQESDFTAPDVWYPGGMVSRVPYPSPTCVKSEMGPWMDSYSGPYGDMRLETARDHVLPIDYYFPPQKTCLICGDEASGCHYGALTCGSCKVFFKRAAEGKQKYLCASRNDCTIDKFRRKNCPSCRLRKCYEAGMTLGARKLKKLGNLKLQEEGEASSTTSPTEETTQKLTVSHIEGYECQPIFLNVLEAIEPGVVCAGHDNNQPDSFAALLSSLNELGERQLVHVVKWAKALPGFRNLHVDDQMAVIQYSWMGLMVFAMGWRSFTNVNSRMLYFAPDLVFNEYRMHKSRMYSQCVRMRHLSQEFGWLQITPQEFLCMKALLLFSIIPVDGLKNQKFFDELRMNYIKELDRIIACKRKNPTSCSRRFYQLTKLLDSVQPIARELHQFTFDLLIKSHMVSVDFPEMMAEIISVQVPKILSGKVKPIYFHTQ
protocol description: Steroid hormone nuclear receptor binding assay, AR binding
Provide only the numeric value, understood in nM.

Consider the reported Ki for these molecules:
Data request: Could you tell me which Ki is on file for CCNc1ccccc1Cn1c2c(c3cc(C#N)ccc31)CC(NC(=O)C(C)C)CC2 (stereo not shown) ?
Data returned: 12.7

Data request: What does the record list as Ki for CC(C)C(=O)N[C@@H]1CCc2c(c3cc(-c4ccno4)ccc3n2Cc2cccc(F)c2)C1 ?
Data returned: 2.6

Data request: Entry Cc1ccc2c(c1)c1c(n2Cc2ccccc2Cl)CCC(NC(=O)C(C)C)C1 (stereo not shown) : reported Ki = ?
Data returned: 94.2

Next up:
Data request: What measured Ki goes with COc1ccc2c(c1)c1c(n2Cc2ccncc2)CCC(NC(=O)C(C)C)C1 (stereo not shown) ?
Data returned: 1400

###

target: human AR (androgen receptor) (Homo sapiens, UniProt P10275)
Construct: expressed in transfected cells; host or cells: 293 cells (293-AR lysate)
Sequence (P10275 1-920): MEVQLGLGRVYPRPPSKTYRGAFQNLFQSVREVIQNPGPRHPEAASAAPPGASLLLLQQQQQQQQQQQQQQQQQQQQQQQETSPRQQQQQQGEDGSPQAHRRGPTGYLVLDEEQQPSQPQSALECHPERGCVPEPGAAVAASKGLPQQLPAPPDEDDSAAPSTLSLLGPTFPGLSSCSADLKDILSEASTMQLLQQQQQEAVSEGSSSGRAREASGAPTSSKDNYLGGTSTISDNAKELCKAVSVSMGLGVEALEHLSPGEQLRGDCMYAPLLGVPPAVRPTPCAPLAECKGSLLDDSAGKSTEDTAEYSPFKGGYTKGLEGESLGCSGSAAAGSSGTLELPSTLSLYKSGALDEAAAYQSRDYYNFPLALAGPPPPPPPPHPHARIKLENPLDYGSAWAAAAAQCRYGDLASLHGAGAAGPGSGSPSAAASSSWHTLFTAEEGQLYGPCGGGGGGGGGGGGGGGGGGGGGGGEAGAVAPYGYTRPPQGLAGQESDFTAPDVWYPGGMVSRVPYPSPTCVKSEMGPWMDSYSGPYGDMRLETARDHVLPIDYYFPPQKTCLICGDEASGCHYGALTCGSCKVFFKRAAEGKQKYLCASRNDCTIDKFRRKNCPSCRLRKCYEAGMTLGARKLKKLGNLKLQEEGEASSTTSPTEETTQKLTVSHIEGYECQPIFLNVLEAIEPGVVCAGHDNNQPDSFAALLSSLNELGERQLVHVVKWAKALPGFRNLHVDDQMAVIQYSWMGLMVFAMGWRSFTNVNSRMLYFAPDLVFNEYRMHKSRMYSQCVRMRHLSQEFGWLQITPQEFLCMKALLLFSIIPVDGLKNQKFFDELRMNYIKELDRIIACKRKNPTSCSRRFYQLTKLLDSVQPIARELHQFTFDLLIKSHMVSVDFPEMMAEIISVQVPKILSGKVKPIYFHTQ
protocol description: Steroid hormone nuclear receptor binding assay, AR binding
Ki values, listed per item
Respond with the bare value in nM.

Data request: Endpoint output: Ki of CC(C)C(=O)NC1CCc2c(c3cc(F)ccc3n2Cc2ccc(C#N)cc2)C1 (centres unmarked) . Value?
Data returned: 81.4

Others:
Data request: What Ki value was documented for this molecule, CC(C)C(=O)NC1CCc2c(c3cc(Cl)ccc3n2Cc2cccc(Cl)c2)C1 (centres unmarked) ?
Data returned: 3.5
